# testedTarget: human HDAC2 (Homo sapiens (Human))
# Sequence (Q92769 whole entry): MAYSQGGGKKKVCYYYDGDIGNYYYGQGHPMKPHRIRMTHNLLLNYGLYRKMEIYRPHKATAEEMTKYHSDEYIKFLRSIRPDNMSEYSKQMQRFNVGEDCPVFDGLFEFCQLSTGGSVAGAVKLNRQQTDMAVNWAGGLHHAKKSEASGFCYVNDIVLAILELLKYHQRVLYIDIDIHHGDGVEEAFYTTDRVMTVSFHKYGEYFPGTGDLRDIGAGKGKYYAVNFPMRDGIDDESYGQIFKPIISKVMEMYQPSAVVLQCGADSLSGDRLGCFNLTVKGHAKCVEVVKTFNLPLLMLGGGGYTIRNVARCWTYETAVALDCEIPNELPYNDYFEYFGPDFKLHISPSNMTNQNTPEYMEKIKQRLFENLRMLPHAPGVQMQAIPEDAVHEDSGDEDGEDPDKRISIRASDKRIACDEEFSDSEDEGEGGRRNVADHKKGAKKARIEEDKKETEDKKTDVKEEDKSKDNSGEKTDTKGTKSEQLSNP
# experimentNotes: HDAC2 inhibition assay (modified FLUOR DE LYS, 384-well)
# Type: biochemical
# conditionSet: […] nM enzyme, 40 μM substrate BML-KI104, 3 h pre-incubation; read-out: HDAC2 IC50
Record form. Attribute: IC50. Fill in for each entry.
One number for each entry, in nM.

Below, 2 compounds whose answers are already recorded.
compound | scaleUnit | numericReadout
CCN1CCC2(CC1)C[C@@H]2C(=O)N[C@@H](CCCCCC(=O)c1ccon1)c1cc(-c2cc3ccc(C)nc3cc2OC)on1 [Example 145] | nM | 14
N[C@@H](CCCCCC(=O)c1ncco1)c1[nH]c(-c2ccc(F)cc2)nc1Cl [Example 25] | nM | 5

Proceeding to the next compound to report its IC50.
Consider O=C1NC(CCCCCC(=O)c2ncco2)(c2nc(-c3ccc(F)cc3)c[nH]2)CO1 (stereo not drawn) [Example 66] . Its measured IC50 is 15

###

# testedTarget: human HDAC1 (Homo sapiens (Human))
# Sequence (Q13547 whole entry): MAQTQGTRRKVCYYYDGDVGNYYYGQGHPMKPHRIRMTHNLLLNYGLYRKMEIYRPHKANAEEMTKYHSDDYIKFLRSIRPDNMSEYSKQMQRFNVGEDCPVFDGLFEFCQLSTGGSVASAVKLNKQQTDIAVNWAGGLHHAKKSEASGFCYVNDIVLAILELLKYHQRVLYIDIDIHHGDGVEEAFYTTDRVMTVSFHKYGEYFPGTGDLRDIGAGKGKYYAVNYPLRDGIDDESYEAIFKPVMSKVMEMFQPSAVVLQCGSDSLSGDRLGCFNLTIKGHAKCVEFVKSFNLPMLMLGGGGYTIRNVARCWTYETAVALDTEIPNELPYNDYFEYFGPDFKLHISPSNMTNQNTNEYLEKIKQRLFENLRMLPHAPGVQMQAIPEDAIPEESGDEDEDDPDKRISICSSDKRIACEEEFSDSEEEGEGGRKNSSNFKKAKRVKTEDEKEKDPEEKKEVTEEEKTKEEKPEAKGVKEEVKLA
Mark Met for IC50 under 2 nM, Not met if at or over.

molecule | className
N[C@@H](CCCCCC(=O)c1ncco1)c1nc(-c2ccc3nn(C4CC4)cc3c2)c[nH]1 | Met
COc1nc2ccccc2cc1-c1cnc([C@H](CCCCCC(=O)c2ncco2)NC(=O)c2cc3n(n2)CCCC3)[nH]1 | Not met
CN1CCC2(CC1)C[C@@H]2C(=O)N[C@@H](CCCCCC(=O)c1ccon1)c1[nH]c(-c2ccccc2F)nc1Cl | Met
CCN1CCC2(CC1)C[C@@H]2C(=O)N[C@@H](CCCCCC(=O)c1ncco1)c1ccn(-c2ccc3nn(C)cc3c2)n1 | Met
COc1cc2c(ccc(=O)n2C)cc1-c1cnc([C@@H](N)CCCCCC(=O)c2ncco2)[nH]1 | Met
COc1cc2nc(C)ccc2cc1-c1cnc([C@H](CCCCCC(=O)c2ncco2)NCc2ccccc2)[nH]1 | Not met
COc1cc2nc(C)ccc2cc1-c1cnc([C@H](CCCCCC(=O)c2ncco2)NC(=O)C2CCCO2)[nH]1 (some centres unmarked) | Not met
CCn1cc(-c2ccc3nc(C)ccc3c2)nc1[C@@H](N)CCCCCC(=O)c1ncco1 | Not met

Dear reviewer, please state whether Cn1cc2cc(-n3ccc([C@@H](N)CCCCCC(=O)c4ncco4)n3)ccc2n1 has IC50 strictly beneath 2 nM.
Not met

###

# testedTarget: human HDAC8 (Homo sapiens (Human))
# Sequence (Q9BY41 whole entry): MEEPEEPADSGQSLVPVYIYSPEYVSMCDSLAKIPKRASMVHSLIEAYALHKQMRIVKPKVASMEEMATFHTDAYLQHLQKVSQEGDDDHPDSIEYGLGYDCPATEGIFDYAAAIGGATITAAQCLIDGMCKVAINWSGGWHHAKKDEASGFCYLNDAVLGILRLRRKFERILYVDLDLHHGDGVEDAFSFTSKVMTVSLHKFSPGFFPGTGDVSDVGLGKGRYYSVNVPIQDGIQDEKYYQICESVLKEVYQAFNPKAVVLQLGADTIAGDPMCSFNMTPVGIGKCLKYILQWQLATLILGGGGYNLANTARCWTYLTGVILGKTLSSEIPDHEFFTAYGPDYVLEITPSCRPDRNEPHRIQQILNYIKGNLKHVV
# experimentNotes: HDAC8 inhibition assay (modified FLUOR DE LYS, 384-well)
# Type: biochemical
# conditionSet: […] nM enzyme, 200 μM substrate BML-KI178, 3 h pre-incubation; read-out: HDAC8 IC50
For each of the compounds below, state its IC50.
Numbers only, in nM.

List the reported IC50 of each compound below.
1. O=C1CC[C@@](CCCCCC(=O)c2ccon2)(c2nc(-c3ccccc3F)c[nH]2)N1
2. N[C@@H](CCCCCC(=O)c1ncco1)c1ncc(-c2ccc3ncccc3c2)[nH]1
3. N[C@@H](CCCCCC(=O)c1ccon1)c1nc(Cl)c(-c2ccc(F)cc2)[nH]1

1: 210; 2: 1400; 3: 1600

###

# testedTarget: human HDAC3/SMRT heterodimer (Homo sapiens (Human), UniProt O15379)
# Sequence (O15379 whole entry): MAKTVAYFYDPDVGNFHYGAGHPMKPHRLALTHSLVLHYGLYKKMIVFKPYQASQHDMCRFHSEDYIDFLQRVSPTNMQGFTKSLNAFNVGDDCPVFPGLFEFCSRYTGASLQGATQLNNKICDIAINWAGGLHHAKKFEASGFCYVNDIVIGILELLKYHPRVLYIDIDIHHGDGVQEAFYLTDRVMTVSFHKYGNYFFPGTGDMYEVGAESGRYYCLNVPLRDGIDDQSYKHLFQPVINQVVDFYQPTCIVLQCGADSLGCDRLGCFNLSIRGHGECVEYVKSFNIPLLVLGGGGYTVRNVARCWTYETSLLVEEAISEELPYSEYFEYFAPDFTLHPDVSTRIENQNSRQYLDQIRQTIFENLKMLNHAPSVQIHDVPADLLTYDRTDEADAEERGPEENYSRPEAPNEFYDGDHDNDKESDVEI
# Sequence (Q9Y618 1-899 partner): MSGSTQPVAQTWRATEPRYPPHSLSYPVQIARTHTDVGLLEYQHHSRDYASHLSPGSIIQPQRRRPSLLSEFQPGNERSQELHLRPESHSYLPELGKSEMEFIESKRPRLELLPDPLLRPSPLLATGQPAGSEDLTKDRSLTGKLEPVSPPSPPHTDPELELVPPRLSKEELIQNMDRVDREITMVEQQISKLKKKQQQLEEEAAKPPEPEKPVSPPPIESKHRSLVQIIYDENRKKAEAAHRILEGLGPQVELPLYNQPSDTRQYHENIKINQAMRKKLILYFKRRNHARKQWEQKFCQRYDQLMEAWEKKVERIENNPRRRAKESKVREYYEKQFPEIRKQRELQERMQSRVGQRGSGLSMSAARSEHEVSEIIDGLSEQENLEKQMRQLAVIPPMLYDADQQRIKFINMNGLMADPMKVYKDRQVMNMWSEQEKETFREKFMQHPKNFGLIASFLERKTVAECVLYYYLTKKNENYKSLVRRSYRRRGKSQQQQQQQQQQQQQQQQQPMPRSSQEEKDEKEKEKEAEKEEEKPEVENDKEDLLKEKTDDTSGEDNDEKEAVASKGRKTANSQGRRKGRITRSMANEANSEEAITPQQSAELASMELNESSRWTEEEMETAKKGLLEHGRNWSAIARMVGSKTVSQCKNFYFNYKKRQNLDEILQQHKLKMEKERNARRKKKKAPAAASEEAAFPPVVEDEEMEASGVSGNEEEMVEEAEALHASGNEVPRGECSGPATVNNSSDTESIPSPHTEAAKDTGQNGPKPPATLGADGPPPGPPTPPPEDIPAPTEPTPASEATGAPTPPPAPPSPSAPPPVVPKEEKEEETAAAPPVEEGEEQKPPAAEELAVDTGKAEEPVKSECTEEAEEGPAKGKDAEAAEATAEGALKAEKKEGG
hey, just use label 1 if measured IC50 is less than 0.9 nM, otherwise label 0

Consider the following illustrative entries.
compound | className
COc1nc2ccccc2cc1-c1cnc([C@H](CCCCCC(=O)c2ncco2)NC(=O)CN2CCC2)[nH]1 [Example 51] | label 1
COc1nc2ccccc2cc1-c1cnc([C@H](CCCCCC(=O)c2ncco2)NC(=O)CN2CCCC2)[nH]1 [Example 52] | label 0
CN(C)C1(C(=O)N[C@@H](CCCCCC(=O)c2ccon2)c2ncc(-c3ccccc3F)[nH]2)CCCC1 [Example 64] | label 1
CCN1CCC2(CC1)C[C@@H]2C(=O)N[C@@H](CCCCCC(=O)c1ncco1)c1ncc(-c2cc(OC3CCC3)ccc2F)[nH]1 [Example 182] | label 1
CN1CC(C(=O)N[C@@H](CCCCCC(=O)c2ncco2)c2ncc(-c3cc(OC4CCC4)ccc3F)[nH]2)C1 [Example 181] | label 0

Regarding COc1cc2nc(C)ccc2cc1-c1cnc([C@H](CCCCCC(=O)c2ncco2)NC(=O)c2cc3n(n2)CCCC3)[nH]1 [Example 164] , kindly confirm whether its IC50 is beneath 0.9 nM.
label 1

# check: IC50 < 0.9 nM for COc1cc2c(ccc(=O)n2C)cc1-c1cnc([C@@H](N)CCCCCC(=O)c2ncco2)[nH]1 [Example 21]
label 0

# TODO verify IC50 < 0.9 nM strictly for this compound: COc1nc2ccccc2cc1-c1cnc([C@H](CCCCCC(=O)c2ncco2)NC(=O)CN2CCOCC2)[nH]1 [Example 54]
label 0

Hello, is IC50 of the following compound strictly smaller than 0.9 nM? COc1cc2nc(C)ccc2cc1-c1cnc([C@H](CCCCCC(=O)c2ncco2)NC(=O)C2(C)CCCCO2)[nH]1 (stereo partly drawn) [Example 170]
label 0
